System Name: human PRMT1 (Homo sapiens)
Sequence (Q99873 with tags, fused parts or gaps): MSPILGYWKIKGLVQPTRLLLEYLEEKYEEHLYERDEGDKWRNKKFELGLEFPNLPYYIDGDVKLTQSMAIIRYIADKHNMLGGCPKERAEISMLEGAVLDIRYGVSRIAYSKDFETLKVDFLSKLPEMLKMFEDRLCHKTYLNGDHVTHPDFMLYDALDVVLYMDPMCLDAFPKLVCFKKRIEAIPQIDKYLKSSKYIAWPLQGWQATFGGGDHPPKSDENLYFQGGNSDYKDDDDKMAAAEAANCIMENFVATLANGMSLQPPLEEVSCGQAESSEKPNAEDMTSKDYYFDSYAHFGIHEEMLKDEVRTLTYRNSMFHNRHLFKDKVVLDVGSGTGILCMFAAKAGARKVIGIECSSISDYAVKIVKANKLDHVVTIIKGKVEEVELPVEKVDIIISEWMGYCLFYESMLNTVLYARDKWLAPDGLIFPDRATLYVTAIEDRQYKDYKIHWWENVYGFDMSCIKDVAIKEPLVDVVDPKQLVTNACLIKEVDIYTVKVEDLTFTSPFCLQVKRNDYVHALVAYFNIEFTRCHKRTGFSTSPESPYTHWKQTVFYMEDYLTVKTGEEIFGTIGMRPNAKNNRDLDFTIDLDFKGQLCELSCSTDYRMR
pIC50: −log10 of the molar value.
Use 6 as the dividing line for pIC50, with the line itself on the MET side and lower values as NOT MET.

### Prompt Textbook exercise: given the entry CC(C)n1ncc2c(C(=O)N3CCCCC3)cc(-c3cccc(CNCCN)c3)nc21 [Compound 153] , state whether its pIC50 is greater than or equal to 6.
### Response NOT MET

### Prompt Quick one: CCOC(=O)c1cc(-c2cccc(CN(C)CCNC)c2)nc2c1cnn2C(C)C [Compound 78]
### Response MET

### Prompt Query CNCCN(C)Cc1cccc(-c2cc(C(=O)NCCCC(=O)NCc3c(C)cc(C)[nH]c3=O)c3cnn(C(C)C)c3n2)c1 [Compound 383] next
### Response MET

### Prompt Queued: CNCCN(C)Cc1cccc(-c2cc(C(=O)NCc3c(C)cc(C)[nH]c3=O)c3cnn(C(C)C)c3n2)c1 [Compound 368]
### Response MET

### Prompt What about CNCCN(C)Cc1cccc(-c2nc(NCc3ccncc3)c3cnn(C4CC4)c3n2)c1 [Compound 69] ?
### Response MET

----------
System Name: Human CARM1 (PRMT4) (Homo sapiens, UniProt Q86X55)
Sequence (Q86X55 2-585 isoform Q86X55-1): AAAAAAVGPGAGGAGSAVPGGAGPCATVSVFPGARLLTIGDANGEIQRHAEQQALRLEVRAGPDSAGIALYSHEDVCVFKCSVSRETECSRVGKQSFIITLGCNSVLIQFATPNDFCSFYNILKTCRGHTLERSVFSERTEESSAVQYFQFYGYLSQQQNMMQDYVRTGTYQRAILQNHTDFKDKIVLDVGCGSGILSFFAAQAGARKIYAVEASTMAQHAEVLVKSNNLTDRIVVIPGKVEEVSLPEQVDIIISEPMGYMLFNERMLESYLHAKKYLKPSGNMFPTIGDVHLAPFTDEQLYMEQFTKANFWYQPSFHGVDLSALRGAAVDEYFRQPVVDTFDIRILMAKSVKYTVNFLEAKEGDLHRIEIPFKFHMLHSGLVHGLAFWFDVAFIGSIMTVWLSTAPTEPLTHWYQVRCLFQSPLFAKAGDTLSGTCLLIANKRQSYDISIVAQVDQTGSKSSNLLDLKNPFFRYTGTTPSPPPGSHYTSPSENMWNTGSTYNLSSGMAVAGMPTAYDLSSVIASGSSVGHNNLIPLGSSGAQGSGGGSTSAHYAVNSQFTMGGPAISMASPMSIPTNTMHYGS
Rule: measured IC50 below 70 nM gets MET; anything equal to or greater than 70 nM gets NOT MET.

CNCCN(C)Cc1cccc(-c2cc(C(=O)NCCC(=O)NCc3c(C)cc(C)[nH]c3=O)c3cnn(C(C)C)c3n2)c1    MET
Cc1cc(C)c(CNC(=O)c2cc(-c3cc(CN(C)CCN)ccc3C)cc3c2cnn3C(C)C)c(=O)[nH]1    NOT MET
CN(CCN)Cc1cccc(-c2cc(C(=O)NCC3CCOCC3)cc(N(C)CC3CC3)c2)c1    MET

### Prompt Item `CNCCN(C)Cc1cccc(-c2cc(C(=O)N[C@@H](C)c3ccccc3)c3cn(Cc4ccccn4)nc3n2)c1` : IC50 beneath 70 nM, strictly?
### Response MET

### Prompt Next record, please: `Cc1ccc(Cn2cnc3ccc(-c4ccc(CNCCN)cc4)cc32)cc1`
### Response NOT MET

### Prompt Same read-out for `CNCCN(C)Cc1cccc(-c2cc(C(=O)NCc3cn(C)cn3)c3cnn(C(C)C)c3n2)c1` ?
### Response MET

### Prompt Another compound: `Cc1cccc(CCn2cnc3ccc(-c4ccc(CNCCN)cc4)cc32)c1`
### Response NOT MET

### Prompt Now consider `CNCCN(C)Cc1cccc(-c2nc(NCc3cccnc3)c3cnn(C4CC4)c3n2)c1` and answer again.
### Response MET

### Prompt Ok, now `Cc1cc(C)c(CNC(=O)c2cc(-c3cccc(CN(C)CCN)c3)nc3c2cnn3C(C)C)c(=O)[nH]1`
### Response MET
